Molecular target: Calpain-2 catalytic subunit (Sus scrofa, UniProt P43367)
Sequence (P43367 whole entry): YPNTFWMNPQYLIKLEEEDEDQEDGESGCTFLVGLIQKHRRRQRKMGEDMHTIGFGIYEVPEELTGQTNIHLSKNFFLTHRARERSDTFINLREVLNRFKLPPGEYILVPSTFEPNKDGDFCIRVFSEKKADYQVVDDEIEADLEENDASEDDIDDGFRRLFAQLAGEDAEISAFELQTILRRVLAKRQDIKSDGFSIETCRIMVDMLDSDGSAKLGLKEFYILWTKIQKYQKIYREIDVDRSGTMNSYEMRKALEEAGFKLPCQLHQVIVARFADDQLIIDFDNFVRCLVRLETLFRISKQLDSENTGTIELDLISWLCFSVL
Test: pig calpain II inhibitor potency, dose response, biochemical, fluorogenic peptide substrate (AID 1420)
Assay type: functional
metric name: IC50

compound	study target	result
O=C(CN1CCCCCCC1)Nc1ccc(Cl)cc1Cl	Calpain-2 catalytic subunit (Sus scrofa, UniProt P43367)	4.92 µM (not active)
CC1CC(C)CN(C(=O)Cn2c(=O)n(CCCCC(=O)NCc3ccco3)c(=O)c3ccccc32)C1 (stereo not drawn)	Calpain-2 catalytic subunit (Sus scrofa, UniProt P43367)	> 50 µM (not active)

IC50 recorded for this compound, COc1ccc(/C=C(\NC(=O)c2ccccc2Cl)C(=O)NCCCC(=O)O)cc1 , is > 50 µM (not active)

Entry O=C(CSc1ccc(-c2ccccc2)nn1)c1cccs1 — recorded IC50 = > 50 µM (not active)

IC50 reading for COc1cccc(Nc2nc(N)c([N+](=O)[O-])c(NCc3ccco3)n2)c1 : 7.89 µM (not active)

IC50 reported for this compound Cc1ccccc1Cn1c(=O)n(CC2CCC(C(=O)NCCc3ccccc3)CC2)c(=O)c2ccccc21 (stereo not drawn) : 20.7 µM (not active)

Reported IC50 ( c1cc2c(cc1C1=Nn3c(nnc3C3CCCCC3)SC1)OCO2 ) = 10.9 µM (not active)

Value of IC50 reported for the compound Cc1cc(C)n2nc(SCc3nnc(SCc4ccccc4Cl)s3)nc2n1 is 9.87 µM (not active)

====

Biological target: COUP transcription factor 2 (Homo sapiens, UniProt P24468);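 also: HEK293 cells transiently cotransfected with COUP-TFII expression vector and reporter; luciferase reporter luminescence driven by COUP-TFII from the pX2-168 reporter plasmid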
Sequence (P24468 whole entry): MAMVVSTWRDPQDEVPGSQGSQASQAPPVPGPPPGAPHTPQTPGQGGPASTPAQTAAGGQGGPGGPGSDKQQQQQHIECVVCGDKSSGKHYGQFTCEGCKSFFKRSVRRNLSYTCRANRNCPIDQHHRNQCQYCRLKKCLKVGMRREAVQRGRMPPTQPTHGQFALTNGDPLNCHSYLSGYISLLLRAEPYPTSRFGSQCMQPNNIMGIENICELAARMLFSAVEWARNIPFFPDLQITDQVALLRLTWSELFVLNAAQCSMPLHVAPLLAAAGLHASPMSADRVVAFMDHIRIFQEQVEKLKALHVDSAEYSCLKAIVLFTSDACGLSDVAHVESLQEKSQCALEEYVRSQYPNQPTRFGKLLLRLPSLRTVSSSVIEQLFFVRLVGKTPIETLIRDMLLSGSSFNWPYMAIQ
Assay: Luminescence-based cell-based high throughput dose response assay to identify inhibitors of COUP-TFII (NR2F2).
Format: functional
The source made the active and inactive calls.
Parameter call: string, one of Y for active, N for inactive

smiles structure	study target	label value
CCOCCCN=C(S)N1CCN(c2nc(-c3ccc(F)cc3)cs2)CC1	COUP transcription factor 2 (Homo sapiens, UniProt P24468)	Y
CCc1ccc(CN(C)C(=O)c2cc(COc3cccc4cnccc34)on2)cc1	COUP transcription factor 2 (Homo sapiens, UniProt P24468)	Y
O=C(/C=C/c1ccc([N+](=O)[O-])cc1)c1ccccc(=O)c1O	COUP transcription factor 2 (Homo sapiens, UniProt P24468)	Y

Now for another entry.
query: // outcome(item) with item = CC(C)(C)c1ccc(-c2nnc3sc(-c4ccccn4)nn23)cc1
result: N

====

Experiment: inhibitors of firefly luciferase expression or activity, dose response, H4 neuroglioma cells, luminescence (AID 1990)
Format: functional, cell-based
Active and inactive are the calls of the source.
metric name: EC50

compound	EC50
Cc1ccc2nc(C)c(CN3CCN(c4ccc([N+](=O)[O-])cc4Cl)CC3)n2c1	> 120 µM (not active)
CCN(CC)CCOC(=O)C(Cc1ccco1)Cc1cccc2ccccc12 (stereo unspecified)	> 120 µM (not active)
O=c1c([N+](=O)[O-])c(N2CCOCC2)c2ccccc2n1Cc1ccccc1	19 µM (active)
Cc1ccccc1Cn1nnc2c1C(=O)c1ccccc1C2=O	> 120 µM (not active)
CC1CCc2nc(NC(=O)C3COc4ccccc4O3)sc2C1 (stereo unspecified)	5.93 µM (inconclusive)

Now let's try a different one.
Documented EC50 of CS(=O)(=O)NNC(=O)CN1C(=O)C2C3C=CC(C3)C2C1=O (stereo unspecified) : > 120 µM (not active)

====

Molecular target: Metabotropic glutamate receptor 5 (Rattus norvegicus, UniProt P31424)
Sequence (P31424 whole entry): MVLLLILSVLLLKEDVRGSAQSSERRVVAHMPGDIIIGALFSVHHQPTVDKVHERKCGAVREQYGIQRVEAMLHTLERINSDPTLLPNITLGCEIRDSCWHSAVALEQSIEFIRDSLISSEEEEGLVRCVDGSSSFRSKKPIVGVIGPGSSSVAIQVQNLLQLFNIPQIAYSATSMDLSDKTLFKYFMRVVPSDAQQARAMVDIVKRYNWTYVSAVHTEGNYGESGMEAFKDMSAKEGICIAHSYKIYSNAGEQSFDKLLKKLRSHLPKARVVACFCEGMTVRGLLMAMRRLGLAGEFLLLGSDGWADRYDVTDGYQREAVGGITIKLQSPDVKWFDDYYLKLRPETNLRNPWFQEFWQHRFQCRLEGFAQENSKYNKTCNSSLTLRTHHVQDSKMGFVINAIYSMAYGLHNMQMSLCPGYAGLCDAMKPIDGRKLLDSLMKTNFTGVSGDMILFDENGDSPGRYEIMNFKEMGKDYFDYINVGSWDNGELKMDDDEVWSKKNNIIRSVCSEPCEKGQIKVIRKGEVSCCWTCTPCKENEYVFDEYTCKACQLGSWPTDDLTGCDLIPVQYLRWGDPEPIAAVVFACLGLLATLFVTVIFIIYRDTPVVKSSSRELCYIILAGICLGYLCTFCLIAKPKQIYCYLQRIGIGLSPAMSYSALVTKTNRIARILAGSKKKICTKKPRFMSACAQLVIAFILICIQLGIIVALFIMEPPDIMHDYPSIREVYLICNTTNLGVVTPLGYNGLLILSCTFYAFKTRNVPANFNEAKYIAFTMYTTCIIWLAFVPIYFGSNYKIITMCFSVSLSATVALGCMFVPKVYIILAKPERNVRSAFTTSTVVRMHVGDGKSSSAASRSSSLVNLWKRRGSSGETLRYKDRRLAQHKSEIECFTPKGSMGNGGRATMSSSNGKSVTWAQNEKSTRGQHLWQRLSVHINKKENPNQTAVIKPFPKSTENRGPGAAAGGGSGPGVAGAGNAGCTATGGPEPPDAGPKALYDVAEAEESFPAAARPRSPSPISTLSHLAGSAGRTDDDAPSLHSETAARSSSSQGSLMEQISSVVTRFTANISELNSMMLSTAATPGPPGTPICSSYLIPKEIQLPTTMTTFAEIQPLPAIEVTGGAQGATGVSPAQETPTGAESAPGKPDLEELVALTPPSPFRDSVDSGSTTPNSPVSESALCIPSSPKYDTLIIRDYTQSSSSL
Assay: Identification of a glycine sulfonamide based non-MPEP site positive allosteric potentiator (PAM) of mGlu5 (calcium_assay).
metric name: EC50 (nM)
Respond numerically; units are nM and should not be typed.

# EC50 (compound: CS(=O)(=O)N1c2ccccc2CCC1C(=O)Nc1ccccn1 (stereo unspecified) ) is 944

====

Each entry below carries its reported AC50.
Target: Cytochrome P450 1A2 (Homo sapiens, UniProt P05177);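 also: PubChem cytochrome P450 panel assay, CYP1A2 panel member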
Sequence (P05177 whole entry): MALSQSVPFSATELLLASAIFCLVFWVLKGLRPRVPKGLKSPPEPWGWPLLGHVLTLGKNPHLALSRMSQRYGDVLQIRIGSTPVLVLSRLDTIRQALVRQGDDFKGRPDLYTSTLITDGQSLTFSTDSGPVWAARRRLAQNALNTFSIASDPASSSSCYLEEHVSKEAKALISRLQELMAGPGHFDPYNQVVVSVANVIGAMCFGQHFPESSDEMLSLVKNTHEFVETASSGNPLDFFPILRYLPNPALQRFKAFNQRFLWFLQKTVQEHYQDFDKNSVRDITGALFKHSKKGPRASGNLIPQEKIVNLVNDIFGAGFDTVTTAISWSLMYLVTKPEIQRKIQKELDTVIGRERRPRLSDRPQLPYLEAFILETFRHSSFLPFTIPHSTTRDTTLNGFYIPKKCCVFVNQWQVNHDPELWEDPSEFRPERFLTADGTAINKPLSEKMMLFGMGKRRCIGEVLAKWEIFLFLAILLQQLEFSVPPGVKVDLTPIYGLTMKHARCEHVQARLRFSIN

compound	result
Cc1cc(O)c(C(C)C)cc1NC(=O)Nc1cccc2ccccc12	0.794 µM (inconclusive)
CC(C)C(=O)C(C)(C)CCc1ccccn1	2.51 µM (inconclusive)
COc1cc(OC)cc(C(=O)NCC(=O)OC2CCOC2=O)c1 (stereo not given)	0.0316 µM (inconclusive)
Nc1ncncc1-c1ccc([N+](=O)[O-])cc1	28.2 µM (inconclusive)
Cc1nn(C)c(Cl)c1S(=O)(=O)N[C@@H](c1ccccc1)[C@]1(C)C[C@H]1[C@@H](C)C(=O)Nc1ccc2ccccc2c1	5.01 µM (inconclusive)
COC(=O)N1CCC[C@@]2(CCN(C(=O)Nc3ccccc3)C2)C1	12.6 µM (inconclusive)
Cc1ccccc1-c1cncnc1NC1CCNCC1	0.00794 µM (inconclusive)
COc1ccc2c(c1)N(CC[C@H]1CCCCN1C)c1ccccc1S2	1.26 µM (inconclusive)
CCCCC(=O)NC(=S)Nc1cccc(NC(=O)CC)c1	15.8 µM (inconclusive)

Field: next compound
# AC50 (compound: CCN1C[C@]2(COC(=O)c3ccccc3N3C(=O)C[C@H](C)C3=O)CC[C@H](OC)[C@]34[C@@H]5C[C@@H]6[C@H](OC)[C@H]5[C@](O)(C[C@@H]6OC)C(O)([C@@H]13)[C@@H](OC)[C@@H]24 ) is 39.8 µM (inconclusive)

====

This section presents molecules with their documented EC50 values.
Experiment: Luminescence Cell-Based Dose Response HTS to Identify Inhibitors of 5'UTR Stem-Loop Driven Prion Protein mRNA Translation in H4 Neuroglioblastoma Cells. [Related pubchem assays: 1827 (Project Summary), 1813 (Primary HTS)]
Format: functional
Calls of active or inactive are those of the source.

Take a look at these entries with their results.
molecule	EC50
CCOc1ccccc1-n1c(CN2CCN(C(=O)c3ccco3)CC2)nc2ccccc2c1=O	8.43 µM (active)
CS(=O)(=O)NNC(=O)CN1C(=O)C2C3C=CC(C3)C2C1=O (stereo not given)	22.1 µM (active)
Cc1cc(Oc2ccc3ccccc3c2)nc(SCC(=O)c2ccccc2)n1	15 µM (active)

The reported value for CNC[C@@H](CC1CCCCC1)NC[C@H](CC(C)C)NCCc1cccc(C(F)(F)F)c1 in terms of EC50 is 8.87 µM (active)

Entry CC(C)CCn1c(N)c(S(=O)(=O)c2cccs2)c2nc3ccccc3nc21 , EC50 reported as > 120 µM (not active)

====

Each entry below carries its reported AC50.
Target: UniProtKB Q06710
Sequence (Q06710 whole entry): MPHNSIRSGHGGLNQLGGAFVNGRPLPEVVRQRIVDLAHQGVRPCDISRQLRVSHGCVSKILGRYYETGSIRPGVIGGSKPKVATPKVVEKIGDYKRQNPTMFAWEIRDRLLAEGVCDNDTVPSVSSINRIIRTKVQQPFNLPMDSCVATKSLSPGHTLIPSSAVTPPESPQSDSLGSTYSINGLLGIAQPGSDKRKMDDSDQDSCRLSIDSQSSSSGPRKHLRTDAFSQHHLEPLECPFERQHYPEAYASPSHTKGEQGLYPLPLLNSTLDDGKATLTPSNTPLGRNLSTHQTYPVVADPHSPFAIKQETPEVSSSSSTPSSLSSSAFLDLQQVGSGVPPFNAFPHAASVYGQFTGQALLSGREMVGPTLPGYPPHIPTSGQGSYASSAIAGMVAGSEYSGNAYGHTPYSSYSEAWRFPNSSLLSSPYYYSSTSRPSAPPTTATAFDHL
Assay: inhibitors of PAX8-driven TPO luciferase reporter, dose response, RMG-I cells, cherry-pick (AID 687027);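 also: luciferase reporter driven by Pax8 target thyroperoxidase promoter measured by SteadyGlo luminescence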
Type: functional, cell-based
Activity calls are given as the source filed them.

smiles structure	study target	result
COc1ccc(CN2[C@H](CO)[C@H]3c4ccccc4NC[C@H]32)cc1	UniProtKB Q06710	11.2 µM (active)

Record COc1ccc(-c2ccc3c(c2)[C@H]2[C@H](CCN2S(=O)(=O)c2ccc(OC)cc2)[C@@H](CO)N3C)cc1 , field AC50: 9.39 µM (active)

// sample COc1ccc(C#Cc2ccc([C@@H]3[C@H](CO)N4CCCCN(C(=O)Nc5cccc(F)c5)C[C@@H]34)cc2)cc1 , its AC50 was 9.89 µM (active)

Quick note, AC50 for Cc1cc(=O)n2c3c(c4c(cc13)c(CN(C)C)cc(=O)n4C)OC2 landed at 16.8 µM (active)

====

Each entry below carries its measured AC50, system: Cytochrome P450 3A4 (Homo sapiens).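 Also: CYP3A4 tested as one member of a cytochrome P450 panel screen.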
Sequence (P08684 whole entry): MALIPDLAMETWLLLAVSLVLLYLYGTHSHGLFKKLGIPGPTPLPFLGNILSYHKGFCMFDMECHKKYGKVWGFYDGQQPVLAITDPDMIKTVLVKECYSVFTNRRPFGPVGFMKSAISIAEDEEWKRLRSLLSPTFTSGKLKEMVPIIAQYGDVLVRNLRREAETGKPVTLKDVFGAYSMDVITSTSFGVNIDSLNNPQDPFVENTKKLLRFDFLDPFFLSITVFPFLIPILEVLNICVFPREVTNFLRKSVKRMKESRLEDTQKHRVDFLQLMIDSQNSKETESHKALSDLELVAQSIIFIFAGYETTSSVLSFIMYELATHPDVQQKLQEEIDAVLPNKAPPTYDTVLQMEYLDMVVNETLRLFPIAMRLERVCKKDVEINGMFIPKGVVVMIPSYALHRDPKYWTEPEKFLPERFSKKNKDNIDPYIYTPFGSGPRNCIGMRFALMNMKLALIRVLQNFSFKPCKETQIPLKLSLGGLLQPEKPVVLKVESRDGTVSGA

Here's what some known entries look like.
molecule	metric name	result
CN1C(=O)NC(c2ccc(O)cc2)C(C(=O)c2cccs2)C1(O)C(F)(F)F (stereo unspecified)	AC50	25.1 µM (inconclusive)
COc1ccccc1CN1CCCC2(CCN(C(=O)c3csnn3)CC2)C1	AC50	15.8 µM (inconclusive)
O=C(OCc1nc2ccccc2[nH]1)C12CC3CC(CC(C3)C1)C2	AC50	1.12 µM (inconclusive)

Please look at the following molecule next.
Form: item Nc1ncncc1-c1ccc([N+](=O)[O-])cc1 ; test system Cytochrome P450 3A4 (Homo sapiens); AC50: 12.6 µM (inconclusive)

====

Biological target: Leucine aminopeptidase (Plasmodium falciparum 3D7, UniProt Q8IL11)
Sequence (Q8IL11 whole entry): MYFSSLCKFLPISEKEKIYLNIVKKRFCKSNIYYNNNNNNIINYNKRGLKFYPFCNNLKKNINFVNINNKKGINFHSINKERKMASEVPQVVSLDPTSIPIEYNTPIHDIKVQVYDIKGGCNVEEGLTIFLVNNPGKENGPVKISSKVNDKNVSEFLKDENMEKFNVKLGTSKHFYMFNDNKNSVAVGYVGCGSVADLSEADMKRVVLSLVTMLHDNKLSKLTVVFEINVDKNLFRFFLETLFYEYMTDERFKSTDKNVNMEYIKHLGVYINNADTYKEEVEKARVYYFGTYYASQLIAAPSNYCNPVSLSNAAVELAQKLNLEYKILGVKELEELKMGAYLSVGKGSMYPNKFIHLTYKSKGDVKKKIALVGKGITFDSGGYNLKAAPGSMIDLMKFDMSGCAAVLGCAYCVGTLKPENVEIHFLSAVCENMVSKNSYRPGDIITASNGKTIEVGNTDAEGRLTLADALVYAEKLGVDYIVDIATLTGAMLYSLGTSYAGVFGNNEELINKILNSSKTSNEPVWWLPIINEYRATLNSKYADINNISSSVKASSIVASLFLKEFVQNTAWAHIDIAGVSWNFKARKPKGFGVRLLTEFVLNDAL
Experiment: P. falciparum M17LAP inhibitors, primary screen, biochemical, fluorogenic H-Leu-NHMec substrate, 1536-well (AID 1619)
Format: functional
The source made the active and inactive calls.
metric name: IC50

As a guide, the following entries are already answered.
compound	study target	metric name	result
O=C(O)[C@H](Cc1ccccc1)N1Cc2ccccc2C1=O	Leucine aminopeptidase (Plasmodium falciparum 3D7, UniProt Q8IL11)	IC50	6.47 µM (active)
CCOc1ccc(NC(=O)Nc2ccc3nccnc3c2)cc1	Leucine aminopeptidase (Plasmodium falciparum 3D7, UniProt Q8IL11)	IC50	5.45 µM (active)
CCOc1cc(/C=C(/C#N)c2ccc(F)cc2)ccc1OCc1ccc(C(=O)O)o1	Leucine aminopeptidase (Plasmodium falciparum 3D7, UniProt Q8IL11)	IC50	23.6 µM (active)

Lab note: next compound to report on.
get_value(item= Cc1cc(-c2[nH]nc3c2C(c2cccc(O)c2)C(C#N)=C(N)O3)c(C)s1 (centres undefined) , readout=IC50) returns 52.8 µM (active)
